- Assay Summary: self-splicing fitness, log relative to wild type (ln ratio); higher = more splicing; Tetrahymena group I intron in knt gene, E. coli kanamycin selection, DiMSum; sequences stand for … in CUCUCU…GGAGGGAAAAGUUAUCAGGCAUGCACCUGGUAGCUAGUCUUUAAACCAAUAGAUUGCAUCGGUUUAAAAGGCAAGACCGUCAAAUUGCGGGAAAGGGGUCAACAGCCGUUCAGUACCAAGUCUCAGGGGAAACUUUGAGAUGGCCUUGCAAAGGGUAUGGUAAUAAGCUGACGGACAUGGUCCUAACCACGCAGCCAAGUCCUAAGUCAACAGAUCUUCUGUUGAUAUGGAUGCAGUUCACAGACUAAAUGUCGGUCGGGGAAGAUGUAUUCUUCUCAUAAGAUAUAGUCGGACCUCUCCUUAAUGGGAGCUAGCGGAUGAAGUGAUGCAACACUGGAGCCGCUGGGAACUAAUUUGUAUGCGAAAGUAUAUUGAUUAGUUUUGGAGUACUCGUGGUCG;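 also: selection with 25 µg/mL kanamycin versus none on LB agar overnight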
- Assay Setup: 37 °C
Output Y for self-splicing fitness (ln) not less than -1; output N otherwise.

Inquiry: Is self-splicing fitness (ln) at least -1? Consider GCACAGCAAUAUUACGCGGA
Reply text: Y

====

- Assay Summary: self-splicing fitness, log relative to wild type (ln ratio); higher = more splicing; Tetrahymena group I intron in knt gene, E. coli kanamycin selection, DiMSum; sequences stand for … in CUCUCU…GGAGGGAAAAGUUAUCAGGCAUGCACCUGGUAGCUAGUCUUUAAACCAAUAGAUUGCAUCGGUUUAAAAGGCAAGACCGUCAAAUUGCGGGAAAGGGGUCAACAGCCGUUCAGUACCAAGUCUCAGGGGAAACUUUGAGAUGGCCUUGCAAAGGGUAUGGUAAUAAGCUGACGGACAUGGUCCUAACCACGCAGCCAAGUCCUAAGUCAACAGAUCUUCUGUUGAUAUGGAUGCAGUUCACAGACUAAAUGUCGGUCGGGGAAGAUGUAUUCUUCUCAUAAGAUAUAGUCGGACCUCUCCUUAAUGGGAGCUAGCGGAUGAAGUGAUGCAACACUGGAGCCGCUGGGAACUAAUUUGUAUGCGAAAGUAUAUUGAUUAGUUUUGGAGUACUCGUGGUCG
- Assay Setup: 30 °C
Measure Name: self-splicing fitness (ln)
# print the numeric value only

Inquiry: Look up and report measured self-splicing fitness (ln) for this entry: CACGAGCAAUAUUACGCGCU
Reply text: -4.22

Inquiry: Look up and report measured self-splicing fitness (ln) for this entry: CGAAAGCAAUAUUACGUUCU
Reply text: -0.581

Inquiry: Look up and report measured self-splicing fitness (ln) for this entry: AAAAAGCAAUAUUACGCUUC
Reply text: -3.38

Inquiry: Look up and report measured self-splicing fitness (ln) for this entry: GUGAAGCAAUAUUACGGCAC
Reply text: -0.747

Inquiry: Look up and report measured self-splicing fitness (ln) for this entry: GACGAGCAAUAUUACGGUGG
Reply text: -3.01

Inquiry: Look up and report measured self-splicing fitness (ln) for this entry: GAUAAGCAAUAUUACGUAGC
Reply text: -2.22

Inquiry: Look up and report measured self-splicing fitness (ln) for this entry: AAAGAGCAAUAUUACGAUAG
Reply text: -3.88

Inquiry: Look up and report measured self-splicing fitness (ln) for this entry: CAAUAGCAAUAUUACGCGGU
Reply text: -3.88

Inquiry: Look up and report measured self-splicing fitness (ln) for this entry: CAUUAGCAAUAUUACGACCA
Reply text: -2.56

====

- Assay Summary: self-splicing fitness, log relative to wild type (ln ratio); higher = more splicing; Tetrahymena group I intron in knt gene, E. coli kanamycin selection, DiMSum; sequences stand for … in CUCUCU…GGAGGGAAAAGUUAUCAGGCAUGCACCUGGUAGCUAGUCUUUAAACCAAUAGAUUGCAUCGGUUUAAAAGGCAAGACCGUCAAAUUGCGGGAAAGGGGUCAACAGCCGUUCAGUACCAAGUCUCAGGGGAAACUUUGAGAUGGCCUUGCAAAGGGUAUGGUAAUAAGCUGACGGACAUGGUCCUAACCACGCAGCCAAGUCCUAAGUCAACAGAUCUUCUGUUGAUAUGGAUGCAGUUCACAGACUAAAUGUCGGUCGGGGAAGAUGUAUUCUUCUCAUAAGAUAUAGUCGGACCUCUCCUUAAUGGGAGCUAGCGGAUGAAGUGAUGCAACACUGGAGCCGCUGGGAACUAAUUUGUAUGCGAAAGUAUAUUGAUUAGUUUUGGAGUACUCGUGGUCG
- Assay Setup: 37 °C
Measure Name: self-splicing fitness (ln)

Here's what some known entries look like.
Entry Sequence	Measurement
CGACAGCAAUAUUACGGAGU	-2.53
ACGGAGCAAUAUUACGGAUU	-0.896
CCGCAGCAAUAUUACGGCUU	-2.45
UCAUAGCAAUAUUACGCUAU	-2.08
CGGUAGCAAUAUUACGAGUA	-1.32

Inquiry: Look up and report measured self-splicing fitness (ln) for this entry: CGCUAGCAAUAUUACGAUGG
Reply text: 0.251

Inquiry: Look up and report measured self-splicing fitness (ln) for this entry: UUAGAGCAAUAUUACGAUGG
Reply text: 0.108

Inquiry: Look up and report measured self-splicing fitness (ln) for this entry: GCACAGCAAUAUUACGUUCC
Reply text: -0.808

====

- Assay Summary: self-splicing fitness, log relative to wild type (ln ratio); higher = more splicing; Tetrahymena group I intron in knt gene, E. coli kanamycin selection, DiMSum; sequences stand for … in CUCUCU…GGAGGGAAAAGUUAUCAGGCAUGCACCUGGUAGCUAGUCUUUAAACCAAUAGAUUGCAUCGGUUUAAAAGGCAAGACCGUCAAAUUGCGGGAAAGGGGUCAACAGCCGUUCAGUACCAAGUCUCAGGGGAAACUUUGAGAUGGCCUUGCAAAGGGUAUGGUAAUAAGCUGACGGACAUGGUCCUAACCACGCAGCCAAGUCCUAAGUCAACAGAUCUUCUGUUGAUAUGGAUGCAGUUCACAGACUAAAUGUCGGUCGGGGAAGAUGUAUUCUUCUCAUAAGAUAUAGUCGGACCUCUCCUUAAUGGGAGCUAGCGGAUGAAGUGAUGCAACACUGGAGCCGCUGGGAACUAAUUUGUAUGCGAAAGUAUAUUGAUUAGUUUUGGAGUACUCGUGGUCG
- Assay Setup: 30 °C
Output Yes for self-splicing fitness (ln) not less than -3; output No otherwise.

Consider the worked cases shown below.
Entry Sequence	Label Value
GAUUAGCAAUAUUACGGGUG	Yes
GCUGAGCAAUAUUACGCCGC	Yes
CGAAAGCAAUAUUACGCUCG	No

Inquiry: Is self-splicing fitness (ln) at least -3? Consider ACUCAGCAAUAUUACGCGCG
Reply text: Yes

Inquiry: Is self-splicing fitness (ln) at least -3? Consider UUAAAGCAAUAUUACGCAAU
Reply text: Yes

Inquiry: Is self-splicing fitness (ln) at least -3? Consider GCGUAGCAAUAUUACGAUAG
Reply text: Yes

Inquiry: Is self-splicing fitness (ln) at least -3? Consider AUCAAGCAAUAUUACGUACG
Reply text: Yes

Inquiry: Is self-splicing fitness (ln) at least -3? Consider CAGUAGCAAUAUUACGCUGG
Reply text: Yes

====

- Assay Summary: self-splicing fitness, log relative to wild type (ln ratio); higher = more splicing; Tetrahymena group I intron in knt gene, E. coli kanamycin selection, DiMSum; sequences stand for … in CUCUCU…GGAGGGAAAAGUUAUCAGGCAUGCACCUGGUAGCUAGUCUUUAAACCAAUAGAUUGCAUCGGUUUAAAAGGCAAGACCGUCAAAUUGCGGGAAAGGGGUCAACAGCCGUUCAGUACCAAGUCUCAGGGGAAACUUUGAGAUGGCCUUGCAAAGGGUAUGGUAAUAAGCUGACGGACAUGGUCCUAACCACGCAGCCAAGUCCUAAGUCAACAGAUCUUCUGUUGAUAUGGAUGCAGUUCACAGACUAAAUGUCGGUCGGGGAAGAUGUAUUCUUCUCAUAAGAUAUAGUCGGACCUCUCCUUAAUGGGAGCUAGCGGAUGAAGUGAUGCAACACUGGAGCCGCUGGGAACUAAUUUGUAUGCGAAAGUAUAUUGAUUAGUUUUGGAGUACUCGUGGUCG
- Assay Setup: 30 °C
Output Fulfilled for self-splicing fitness (ln) not less than -2; output Not fulfilled otherwise.

Consider the worked cases shown below.
Entry Sequence	Label Value
CAGUAGCAAUAUUACGCCAA	Not fulfilled
ACGUAGCAAUAUUACGUGCU	Fulfilled
UUUCAGCAAUAUUACGCAAG	Fulfilled

Inquiry: Is self-splicing fitness (ln) at least -2? Consider CGGAAGCAAUAUUACGGCGA
Reply text: Fulfilled

Inquiry: Is self-splicing fitness (ln) at least -2? Consider CCUUAGCAAUAUUACGUCGU
Reply text: Not fulfilled

Inquiry: Is self-splicing fitness (ln) at least -2? Consider UUAUAGCAAUAUUACGAACG
Reply text: Fulfilled

Inquiry: Is self-splicing fitness (ln) at least -2? Consider UAUUAGCAAUAUUACGUUGG
Reply text: Not fulfilled

Inquiry: Is self-splicing fitness (ln) at least -2? Consider GUCUAGCAAUAUUACGCCUU
Reply text: Fulfilled

Inquiry: Is self-splicing fitness (ln) at least -2? Consider GCGCAGCAAUAUUACGCGUA
Reply text: Fulfilled

Inquiry: Is self-splicing fitness (ln) at least -2? Consider GUGAAGCAAUAUUACGAAGU
Reply text: Fulfilled

Inquiry: Is self-splicing fitness (ln) at least -2? Consider CAUUAGCAAUAUUACGAGAU
Reply text: Not fulfilled

Inquiry: Is self-splicing fitness (ln) at least -2? Consider AGGGAGCAAUAUUACGAUUU
Reply text: Not fulfilled

Inquiry: Is self-splicing fitness (ln) at least -2? Consider GAAGAGCAAUAUUACGCGCA
Reply text: Fulfilled

Inquiry: Is self-splicing fitness (ln) at least -2? Consider AGUCAGCAAUAUUACGUUUG
Reply text: Not fulfilled

Inquiry: Is self-splicing fitness (ln) at least -2? Consider GCCCAGCAAUAUUACGAGCG
Reply text: Fulfilled

Inquiry: Is self-splicing fitness (ln) at least -2? Consider ACCCAGCAAUAUUACGAUGU
Reply text: Fulfilled
